Ref: paper PMC9250534

Catalogue of compounds with associated IC50
target: MDM2 (Homo sapiens, UniProt Q00987); assay: IC50 of purified MDM2-binding macrocycles, fluorescence polarization competition with FP53; conditions: HPLC-purified macrocycle; FP displacement of fluorescent reporter peptide; average of 3 replicates; read-out: IC50 Average
Sequence (Q00987 whole entry): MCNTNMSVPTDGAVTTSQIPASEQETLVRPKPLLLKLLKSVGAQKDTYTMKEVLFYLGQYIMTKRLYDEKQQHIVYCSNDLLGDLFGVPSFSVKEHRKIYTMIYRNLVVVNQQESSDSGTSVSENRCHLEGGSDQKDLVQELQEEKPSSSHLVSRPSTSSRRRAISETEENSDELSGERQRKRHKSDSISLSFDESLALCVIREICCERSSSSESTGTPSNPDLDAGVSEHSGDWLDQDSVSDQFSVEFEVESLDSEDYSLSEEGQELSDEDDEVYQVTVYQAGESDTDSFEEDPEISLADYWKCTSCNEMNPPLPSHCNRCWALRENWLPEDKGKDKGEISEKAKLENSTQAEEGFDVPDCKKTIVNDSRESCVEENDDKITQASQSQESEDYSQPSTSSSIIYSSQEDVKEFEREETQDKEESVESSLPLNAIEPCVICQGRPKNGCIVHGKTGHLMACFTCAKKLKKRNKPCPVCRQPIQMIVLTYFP
Give a bare numeral; the unit nM is implied.

These recorded examples may help you get a feel for the data.
smiles=O=C(/C=C/c1ccccc1)NC[C@@H]1NC(=O)[C@H]2CCCN(C2)C(=O)CCSSCCNC(=O)[C@H](Cc2c[nH]c3ccccc23)NC1=O val=900
smiles=O=C(NC[C@@H]1NC(=O)[C@H]2CCCN(C2)C(=O)CCSSCCNC(=O)[C@H](Cc2c[nH]c3ccccc23)NC1=O)c1ccc(Cl)s1 val=2400

Next up:
What reported IC50 corresponds to `O=C(NC[C@@H]1NC(=O)[C@H]2CCCN(C2)C(=O)CCSSCCNC(=O)[C@H](Cc2c[nH]c3ccccc23)NC1=O)c1ccc(Cl)cc1` on MDM2 (Homo sapiens, UniProt Q00987)?
3700
